- Test system: human washed platelets
- assay_method_text: Alpha-thrombin induced platelet aggregation assay
- Type: cell-based
- reported_conditions: 0.1 h, read-out: IC50 for the inhibition of platelet aggregation
quantity_name: IC50 (nM)
Note: unit nM is implicit; provide only the numeric part.

Test item `COc1cc(OCc2csc(-c3ccccc3)n2)c2cc(-c3cn4nc(OC)sc4n3)oc2c1` ; human washed platelets; reported IC50 was 5
